Answer each item with its documented selectivity ratio.
Experiment description: Selective toxicity- EC50 value of FM3A / EC50 value of Plasmodium falciparum
Assay type: cell-based
Condition parameters: mouse, FM3A cells; read-out: Toxicity ratio
Would you mind answering with just the numeric figure?

GET /values?readout=selectivity ratio&item= CN1/C(=c2\s/c(=C\c3cc[n+](C)cc3)n(Cc3ccccc3)c2=O)Sc2ccccc21
16

GET /values?readout=selectivity ratio&item= CN1/C(=c2\s/c(=C\c3cccc[n+]3C)n(Cc3ccccc3)c2=O)Sc2ccccc21
26

GET /values?readout=selectivity ratio&item= C=CCn1c(=O)/c(=C2\Sc3ccccc3N2C)s/c1=C\c1cc[n+](C)cc1
480
